Data provenance: ChEMBL document CHEMBL3885861

# Species on record: Rattus norvegicus
# Experimental Details: Open TG-GATES - Regimen: Single
# Type: toxicity, organism-based, Sprague-Dawley
# Set-up: regimen Single, gender Male, age 6 weeks
# Setup Conditions: in vivo, po, 100 mg/kg, 24 h, tissue Liver, route gavage, dose level Low
Provide the recorded LIVER for the entries that follow.
Give bare numbers, in g.

Examples with their reported LIVER follow.
| Molecule | Endpoint Name | Measured Value |
| --- | --- | --- |
| COC1=CC(=O)C[C@@H](C)[C@]12Oc1c(Cl)c(OC)cc(OC)c1C2=O [GRISEOFULVIN] | LIVER | 10.8 |
| CCOC(=O)CCC(=O)O[C@H]1[C@H](O[C@@H]2[C@@H](C)[C@H](O[C@H]3C[C@@](C)(OC)[C@@H](O)[C@H](C)O3)[C@@H](C)C(=O)O[C@H](CC)[C@@](C)(O)[C@H](O)[C@@H](C)C(=O)[C@H](C)C[C@@]2(C)O)O[C@H](C)C[C@@H]1N(C)C [ERYTHROMYCIN ETHYLSUCCINATE] | LIVER | 9.5 |
| NC(N)=Nc1nc(CSCCC(N)=NS(N)(=O)=O)cs1 [FAMOTIDINE] | LIVER | 10.8 |

Read the next record carefully.
# input Give recorded LIVER. COc1ccc2[nH]c([S+]([O-])Cc3ncc(C)c(OC)c3C)nc2c1 (centres undefined) [OMEPRAZOLE]
# output 11.2
